B1: TPR t1 (parent)
chain: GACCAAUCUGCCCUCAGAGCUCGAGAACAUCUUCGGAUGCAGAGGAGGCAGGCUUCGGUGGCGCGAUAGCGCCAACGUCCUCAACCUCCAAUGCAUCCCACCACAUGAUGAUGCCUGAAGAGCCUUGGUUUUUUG

variants of: B1; experiment: polymerase ribozyme fitness, log enrichment relative to wild type (log ratio); higher = more active; in vitro selection for triplet polymerase activity
polymerase ribozyme fitness (log ratio) vs -4: at or above is yes, below is no.

{"columns": ["VARIANT_SPEC", "ASSIGNED_CATEGORY"],
 "data": [
  ["A6U G63U U78C C97U G120C", "yes"]
]}

Query string: Does the reported polymerase ribozyme fitness (log ratio) for C56G G71A fall at or above the -4 mark?
Result string: no

Query string: Can you check G47U C104U next?
Result string: yes

Query string: Can you check C20G U30G C114G G117U C124G next?
Result string: no

Query string: Can you check G71A U96G C123A next?
Result string: yes

Query string: Can you check C28U C70U next?
Result string: yes

Query string: Can you check G61C U78G U130G next?
Result string: no

Query string: Can you check C12G C34A next?
Result string: yes

Query string: Can you check C15G G61C A90G U96A next?
Result string: no

Query string: Can you check C22G G110U U112G next?
Result string: no

Query string: Can you check A6U A46U G110U next?
Result string: yes

Query string: Can you check A43C C49A C94A C115A next?
Result string: no

Query string: Can you check C8U C102A next?
Result string: yes

Query string: Can you check U9C C49A C86U C94A G113A next?
Result string: yes

Query string: Can you check C11A C20U G42C C53U next?
Result string: no

Query string: Can you check C20G C73A C101U G113U next?
Result string: yes
